biological target: HLA-DQ8 (human); experiment: competition with radiolabeled probe peptide, purified MHC class II
measurement label: pIC50
Worth noting: pIC50 values are minus log10 of concentrations stated in mol/L.

Field: example entries. Status: answers known.
| binder | pIC50 |
| --- | --- |
| QQPPFSHQRPPFSQQ [… (SEQ ID NO: 70)] | 4.41 |
| QSPFPEQQEQHQQLQ [… (SEQ ID NO: 185)] | 4.42 |
| QPFFSHQQRSGFSQQ [… (SEQ ID NO: 83)] | 4.41 |
| QQPPFSKQEQQQPIL [… (SEQ ID NO: 71)] | 4.53 |
| QQSPFPEQEQQHQQL [… (SEQ ID NO: 183)] | 4.40 |

Kindly review the next binder as well.
[ask] In one line, give reported pIC50 of the entry QQPPFSEQEQPSSQQ [… (SEQ ID NO: 77)] .
[reply] 4.50
